tested on: MDA-MB-436 cells; test: MDA-MB-436 cell proliferation (CellTiter-Glo); type: cell-based; details: Homo sapiens
# pIC50 per entry
Reminder that pIC50 means the negative base-10 logarithm of the concentration expressed in mol/L.

Below: 3 compounds and their reported pIC50.
- compound: "CC(=O)c1c(C)c2cnc(Nc3ccc(N4CCNCC4)cn3)nc2n(C2CCCC2)c1=O [Palbociclib, reference compound]"
  recorded value: 5.01
- compound: "CC(C)c1c2cc(-c3nc(Nc4ccc(N5CCNCC5)cn4)ncc3F)ccc2nn1C"
  recorded value: 6.48
- compound: "CC(C)c1c2cc(-c3nc(Nc4ccc(N5C[C@@H]6C[C@H]5CN6)cn4)ncc3F)ccc2nn1C"
  recorded value: 6.28

// below: pIC50 requested for another compound
Task: Find the recorded pIC50 belonging to CC(C)c1c2c(nn1C)CCN(c1nc(Nc3ccc(C4CCN(C)CC4)cn3)ncc1F)C2 and report it.
Result: 5.48

---

assay: Caco-2 cell bi-directional permeability assessment; settings: human, Caco-2, pH 7.4
readout type: efflux ratio at 2 h, 2 μM

Task: Find the recorded efflux ratio at 2 h, 2 μM belonging to CC(C)c1c2cc(-c3nc(Nc4ccc(N5CCN(CCC#N)CC5)cn4)ncc3F)ccc2nn1C [Example 7] and report it.
Result: 0.52

---

biological target: CDK6/cyclin D1 (Homo sapiens); construct: purchased Life Technologies; test: CDK6/cyclin D1 Lance Ultra enzyme assay; type: biochemical; conditions: 250 μM ATP, 180 minutes
Sequence (Q00534 whole entry, one chain of several): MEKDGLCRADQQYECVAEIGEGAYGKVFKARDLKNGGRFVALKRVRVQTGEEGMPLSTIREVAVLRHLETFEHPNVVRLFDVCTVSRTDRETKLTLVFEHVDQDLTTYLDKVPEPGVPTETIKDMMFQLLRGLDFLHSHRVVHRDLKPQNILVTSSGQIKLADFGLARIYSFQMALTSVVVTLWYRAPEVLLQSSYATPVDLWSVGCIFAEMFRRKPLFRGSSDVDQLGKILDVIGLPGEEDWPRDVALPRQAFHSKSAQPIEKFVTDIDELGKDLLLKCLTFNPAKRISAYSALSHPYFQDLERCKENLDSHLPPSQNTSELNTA
# IC50 per entry
Enter your answer as a number in nM; do not include the unit.

Below: 2 compounds and their reported IC50.
- compound: "CC(C)c1c2cc(-c3nc(Nc4ccc(N5CCN(CCC#N)CC5)cn4)ncc3F)ccc2nn1C [Example 7]"
  tested system: "CDK6/cyclin D1 (Homo sapiens)"
  IC50, nM: 4.52
- compound: "CC(C)c1c2c(nn1C)CCN(c1nc(Nc3ccc(C4CCN(C)CC4)cn3)ncc1F)C2 [Example 24]"
  tested system: "CDK6/cyclin D1 (Homo sapiens)"
  IC50, nM: 5.79

// below: IC50 requested for another compound
Task: Request: IC50, test system CDK6/cyclin D1 (Homo sapiens), entry CC(C)c1c2cc(-c3nc(Nc4ccc(N5CCN(CCO)CC5)cn4)ncc3F)ccc2nn1C [Example 10]
Result: 0.97

---

experiment: Caco-2 cell bi-directional permeability assessment; conditions: human, Caco-2, pH 7.4
readout type: Papp A→B at 2 h, 2 μM (×10⁻⁶ cm/s)
Enter your answer as a number in ×10⁻⁶ cm/s; do not include the unit.

- compound: "CCN1CCN(Cc2ccc(Nc3ncc(F)c(-c4cc(F)c5nc(C)n(C(C)C)c5c4)n3)nc2)CC1 [LY2835219, Abemaciclib, reference compound]"
  measurement unit: "×10⁻⁶ cm/s"
  Papp A→B at 2 h, 2 μM: 2.69

Task: Find the recorded Papp A→B at 2 h, 2 μM belonging to CC(C)c1c2cc(-c3nc(Nc4ccc(N5CCN(CCC#N)CC5)cn4)ncc3F)ccc2nn1C and report it.
Result: 6.55

---

Target: CDK4/cyclin D1 (Homo sapiens, UniProt P11802)
Construct: purchased Life Technologies
Sequence (P11802 whole entry): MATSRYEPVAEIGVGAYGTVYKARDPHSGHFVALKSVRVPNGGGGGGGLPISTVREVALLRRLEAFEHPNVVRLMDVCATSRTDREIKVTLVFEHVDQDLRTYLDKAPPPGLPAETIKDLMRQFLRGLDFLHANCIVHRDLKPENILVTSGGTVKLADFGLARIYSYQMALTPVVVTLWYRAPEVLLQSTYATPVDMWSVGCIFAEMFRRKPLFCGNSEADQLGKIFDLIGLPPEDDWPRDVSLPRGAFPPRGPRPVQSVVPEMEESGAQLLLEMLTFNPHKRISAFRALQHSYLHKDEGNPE
Sequence (P24385 whole entry partner): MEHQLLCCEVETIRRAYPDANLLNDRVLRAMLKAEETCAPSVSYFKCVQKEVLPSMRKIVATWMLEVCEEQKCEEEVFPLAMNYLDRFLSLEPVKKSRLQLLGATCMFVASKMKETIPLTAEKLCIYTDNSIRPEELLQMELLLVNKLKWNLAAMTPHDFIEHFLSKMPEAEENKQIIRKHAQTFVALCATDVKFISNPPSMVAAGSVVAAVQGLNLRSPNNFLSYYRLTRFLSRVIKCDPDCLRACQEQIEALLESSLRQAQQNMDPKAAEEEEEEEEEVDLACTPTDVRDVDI
Test: CDK4/cyclin D1 Lance Ultra enzyme assay
Type: biochemical
Conditions: 350 μM ATP, 180 minutes
Description: The experimental materials included CDK2/cyclin A, CDK4/cyclin D1, CDK6/cyclin D1 (Life Technologies); ULight-labeled polypeptide substrates, i.e., ULight-4E-BP1 and ULight-MBP (PerkinElmer); the europium-labeled antibody against anti-myelin basic protein and europium-labeled rabbit antibody (PerkinElmer); and Envision® Multilabel Plate Reader (PerkinElmer) used for signal detection. The compounds to be tested were diluted three times so as to be at ten gradually varied concentrations. […]
# IC50 per entry
Enter your answer as a number in nM; do not include the unit.

- molecular string: "CC(C)c1c2cc(-c3nc(Nc4ccc(N5CCN(CCC#N)CC5)cn4)ncc3F)ccc2nn1C"
  recorded value: 1.82
- molecular string: "CC(C)c1c2c(nn1C)CCN(c1nc(Nc3ccc(C4CCN(C)CC4)cn3)ncc1F)C2"
  recorded value: 1.38

Task: Find the recorded IC50 belonging to CC(C)c1c2cc(-c3nc(Nc4ccc(N5CCN(CCO)CC5)cn4)ncc3F)ccc2nn1C and report it.
Result: 0.88

Task: Find the recorded IC50 belonging to CC(C)c1c2cc(-c3nc(Nc4ccc(N5CCN(CCN)CC5)cn4)ncc3F)ccc2nn1C and report it.
Result: 0.31

---

assay: Caco-2 cell bi-directional permeability assessment; conditions: human, Caco-2, pH 7.4
# Papp B→A at 2 h, 2 μM per entry
Enter your answer as a number in ×10⁻⁶ cm/s; do not include the unit.

- compound: "CC(C)c1c2cc(-c3nc(Nc4ccc(N5CCN(CCC#N)CC5)cn4)ncc3F)ccc2nn1C"
  recorded value: 3.38

Task: Find the recorded Papp B→A at 2 h, 2 μM belonging to CCN1CCN(Cc2ccc(Nc3ncc(F)c(-c4cc(F)c5nc(C)n(C(C)C)c5c4)n3)nc2)CC1 [LY2835219, Abemaciclib, reference compound] and report it.
Result: 6.34

---

# pIC50 per entry
target: CDK2/cyclin A (Homo sapiens, UniProt P24941); test: CDK2/cyclin A Lance Ultra enzyme assay; details: 25 μM ATP, 60 minutes
Reminder that pIC50 means the negative base-10 logarithm of the concentration expressed in mol/L.

Below: 4 compounds and their reported pIC50.
- compound: "CC(C)c1c2cc(-c3nc(Nc4ccc(N5CCN(CCO)CC5)cn4)ncc3F)ccc2nn1C [Example 10]"
  recorded value: 8.18
- compound: "CC(C)c1c2c(nn1C)CCN(c1nc(Nc3ccc(C4CCN(C)CC4)cn3)ncc1F)C2 [Example 24]"
  recorded value: 7.48
- compound: "CC(C)c1c2cc(-c3nc(Nc4ccc(N5CCN(CCC#N)CC5)cn4)ncc3F)ccc2nn1C [Example 7]"
  recorded value: 7.92
- compound: "CC(C)c1c2cc(-c3nc(Nc4ccc(N5CCN(CCN)CC5)cn4)ncc3F)ccc2nn1C [Example 9]"
  recorded value: 8.23

Task: Find the recorded pIC50 belonging to CC(C)c1c2cc(-c3nc(Nc4ccc(N5C[C@@H]6C[C@H]5CN6)cn4)ncc3F)ccc2nn1C [Example 15] and report it.
Result: 8.55

---

test system: MDA-MB-436 cells; assay: MDA-MB-436 cell proliferation (CellTiter-Glo); type: cell-based; conditions: Homo sapiens
# IC50 per entry
Enter your answer as a number in nM; do not include the unit.

- compound: "CC(C)c1c2cc(-c3nc(Nc4ccc(N5CCN(CCC#N)CC5)cn4)ncc3F)ccc2nn1C"
  measurement unit: "nM"
  IC50: 1160
- compound: "CCN1CCN(Cc2ccc(Nc3ncc(F)c(-c4cc(F)c5nc(C)n(C(C)C)c5c4)n3)nc2)CC1 [LY2835219, Abemaciclib, reference compound]"
  measurement unit: "nM"
  IC50: 1030
- compound: "CC(C)c1c2cc(-c3nc(Nc4ccc(N5CCN(CCO)CC5)cn4)ncc3F)ccc2nn1C"
  measurement unit: "nM"
  IC50: 496

// below: IC50 requested for another compound
Task: Request: IC50, test system MDA-MB-436 cells, entry CC(C)c1c2cc(-c3nc(Nc4ccc(N5CCN(CCN)CC5)cn4)ncc3F)ccc2nn1C
Result: 667

---

# IC50 per entry
tested on: MCF-7 cells; experiment: MCF-7 cell proliferation (CellTiter-Glo, 6 days); type: cell-based, human; conditions: Homo sapiens, MCF7; proliferation, 6 days
Enter your answer as a number in nM; do not include the unit.

Below: 5 molecules and their reported IC50.
- molecule: "CC(C)c1c2cc(-c3nc(Nc4ccc(N5CCNCC5)cn4)ncc3F)ccc2nn1C"
  readout type: "IC50"
  measurement unit: "nM"
  recorded value: 32.1
- molecule: "CC(C)c1c2c(nn1C)CCN(c1nc(Nc3ccc(C4CCN(C)CC4)cn3)ncc1F)C2"
  readout type: "IC50"
  measurement unit: "nM"
  recorded value: 265
- molecule: "CC(C)c1c2cc(-c3nc(Nc4ccc(N5C[C@@H]6C[C@H]5CN6)cn4)ncc3F)ccc2nn1C"
  readout type: "IC50"
  measurement unit: "nM"
  recorded value: 56
- molecule: "CC(C)c1c2cc(-c3nc(Nc4ccc(N5CCN(CCC#N)CC5)cn4)ncc3F)ccc2nn1C"
  readout type: "IC50"
  measurement unit: "nM"
  recorded value: 37.2
- molecule: "CC(C)c1c2cc(-c3nc(Nc4ccc(N5CCN(CCN)CC5)cn4)ncc3F)ccc2nn1C"
  readout type: "IC50"
  measurement unit: "nM"
  recorded value: 45

Task: Find the recorded IC50 belonging to CC(=O)c1c(C)c2cnc(Nc3ccc(N4CCNCC4)cn3)nc2n(C2CCCC2)c1=O [Palbociclib, reference compound] and report it.
Result: 87

Task: Find the recorded IC50 belonging to CC(C)c1c2cc(-c3nc(Nc4ccc(N5CCN(CCO)CC5)cn4)ncc3F)ccc2nn1C and report it.
Result: 28.9
